Give pIC50 for every item shown.
TARGET: Melanocyte-stimulating hormone receptor (Homo sapiens)
Sequence (Q01726 whole entry): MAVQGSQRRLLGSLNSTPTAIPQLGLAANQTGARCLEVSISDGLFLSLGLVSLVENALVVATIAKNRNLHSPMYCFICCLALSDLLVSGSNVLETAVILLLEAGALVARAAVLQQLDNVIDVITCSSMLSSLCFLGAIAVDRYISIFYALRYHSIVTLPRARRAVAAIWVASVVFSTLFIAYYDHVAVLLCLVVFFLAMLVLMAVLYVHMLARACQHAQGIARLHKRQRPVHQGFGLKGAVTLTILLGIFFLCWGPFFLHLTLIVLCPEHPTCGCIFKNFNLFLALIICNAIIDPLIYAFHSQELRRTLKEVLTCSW
METHOD: Partial agonist activity at C-terminal HA-tagged human MC1-R stably expressed in HEK293 cells co-expressing GScAMP22P cAMP reporter assessed as inhibition of alpha-MSH induced cAMP production by cell based luminescence assay
Type: functional
Just so you know, pIC50 here is -log10 of the concentration in molar units; reply with that number alone.

// query Looking for the measured pIC50 of CCCC[C@H](NC(C)=O)C(=O)N[C@H]1CC(=O)NCCCC[C@@H](C(N)=O)NC(=O)CNC(=O)[C@H](Cc2c[nH]c3ccccc23)NC(=O)[C@H](CCCNC(=N)N)NC(=O)[C@@H](Cc2ccc3ccccc3c2)NC(=O)[C@@H]2C[C@H](NC(=O)[C@@H](N)CCCN)CN2C1=O , can you help?
// result 9.60

// query Which pIC50 reading was recorded for the compound CCCC[C@H](NC(C)=O)C(=O)N[C@H]1CC(=O)NCCCC[C@@H](C(N)=O)NC(=O)CNC(=O)[C@H](Cc2c[nH]c3ccccc23)NC(=O)[C@H](CCCNC(=N)N)NC(=O)[C@@H](Cc2ccc3ccccc3c2)NC(=O)[C@@H]2C[C@H](n3cc(-c4ccccn4)nn3)CN2C1=O ?
// result 6.69

// query Any idea what pIC50 was measured for CCCCCCc1cn([C@H]2C[C@H]3C(=O)N[C@H](Cc4ccc5ccccc5c4)C(=O)N[C@@H](CCCNC(=N)N)C(=O)N[C@@H](Cc4c[nH]c5ccccc45)C(=O)NCC(=O)N[C@H](C(N)=O)CCCCNC(=O)C[C@H](NC(=O)[C@H](CCCC)NC(C)=O)C(=O)N3C2)nn1 ?
// result 7.16

// query Please look up its pIC50: CCCCCC(=O)N[C@H]1C[C@H]2C(=O)N[C@H](Cc3ccc4ccccc4c3)C(=O)N[C@@H](CCCNC(=N)N)C(=O)N[C@@H](Cc3c[nH]c4ccccc34)C(=O)NCC(=O)N[C@H](C(N)=O)CCCCNC(=O)C[C@H](NC(=O)[C@H](CCCC)NC(C)=O)C(=O)N2C1
// result 8.00
